- System: 782815-120-R-J1-PDC complex spheroid viability;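 also: spheroids exposed to compounds for 7 days before reading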
- measurement.protocol: Anticancer human tumor 782815-120-R-J1-PDC patient-derived colon adenocarcinoma cell line growth inhibition [RAS]; active = viability on the fitted dose curve at most 10% of control; inactive = the rest
- assay.conditions: second compound 0.0316 µM; first compound 10 µM
Parameter call: string, one of yes (active), no (inactive)

Completed entries (count: 3):
CC(Nc1ccc2c(c1)OCCn1cc(N3C(=O)OCC3C(F)F)nc1-2)C(N)=O (stereo not given) + C#Cc1c(F)ccc2cc(O)cc(-c3ncc4c(N5CC6CCC(C5)N6)nc(OCC56CCCN5CC(F)C6)nc4c3F)c12 | no
CC(C)NCC(C(=O)N1CCN(c2ncnc3c2C(C)CC3O)CC1)c1ccc(Cl)cc1 (stereo not given) + C#Cc1c(F)ccc2cc(O)cc(-c3ncc4c(N5CC6CCC(C5)N6)nc(OCC56CCCN5CC(F)C6)nc4c3F)c12 | no
CCC(CC)c1cc(NC2CCC(N)C2)n2nccc2n1 (stereo not given) + C=CC(=O)N1CCN(c2nc(OCC3CCCN3C)nc3c(F)c(-c4nc(N)cc(C)c4C(F)(F)F)c(Cl)cc23)C(C)C1 | yes

(Q) Write down the call the test reported for this compound. Item: CC1(O)CCCC1n1c(=O)c(C(F)F)cc2cnc(NC3CCN(S(C)(=O)=O)CC3)nc21 (stereo not given) + C=CC(=O)N1CCN(c2nc(OCC3CCCN3C)nc3c(F)c(-c4nc(N)cc(C)c4C(F)(F)F)c(Cl)cc23)C(C)C1
(A) no

(Q) Next: CC(=O)OC12COC1CC(O)C1(C)C(=O)C(O)C3=C(C)C(OC(=O)C(O)C(NC(=O)OC(C)(C)C)c4ccccc4)CC(O)(C(OC(=O)c4ccccc4)C21)C3(C)C (stereo not given) + C#Cc1c(F)ccc2cc(O)cc(-c3ncc4c(N5CC6CCC(C5)N6)nc(OCC56CCCN5CC(F)C6)nc4c3F)c12
(A) no

(Q) Next: C[C@@H](NC(=O)c1ncnc(N)c1Cl)c1ncc(C(=O)Nc2cc(C(F)(F)F)c(Cl)cn2)s1 + C=CC(=O)N1CCN(c2nc(OCC3CCCN3C)nc3c(F)c(-c4nc(N)cc(C)c4C(F)(F)F)c(Cl)cc23)C(C)C1
(A) no

(Q) Next: CC(=O)OC12COC1CC(O)C1(C)C(=O)C(O)C3=C(C)C(OC(=O)C(O)C(NC(=O)OC(C)(C)C)c4ccccc4)CC(O)(C(OC(=O)c4ccccc4)C21)C3(C)C (stereo not given) + C=CC(=O)N1CCN(c2nc(OCC3CCCN3C)nc3c(F)c(-c4nc(N)cc(C)c4C(F)(F)F)c(Cl)cc23)C(C)C1
(A) no

(Q) Next: CC(Nc1ccc2c(c1)OCCn1cc(N3C(=O)OCC3C(F)F)nc1-2)C(N)=O (stereo not given) + C=CC(=O)N1CCN(c2nc(OCC3CCCN3C)nc3c(F)c(-c4nc(N)cc(C)c4C(F)(F)F)c(Cl)cc23)C(C)C1
(A) no

(Q) Next: CC1(O)CCCC1n1c(=O)c(C(F)F)cc2cnc(NC3CCN(S(C)(=O)=O)CC3)nc21 (stereo not given) + C#Cc1c(F)ccc2cc(O)cc(-c3ncc4c(N5CC6CCC(C5)N6)nc(OCC56CCCN5CC(F)C6)nc4c3F)c12
(A) no

(Q) Next: NC1c2ccccc2OC12CCN(c1cnc3c(N4CCCc5ncccc54)n[nH]c3n1)CC2 (stereo not given) + C#Cc1c(F)ccc2cc(O)cc(-c3ncc4c(N5CC6CCC(C5)N6)nc(OCC56CCCN5CC(F)C6)nc4c3F)c12
(A) no
